Reported GI50 values for the following compounds.
- System: SNB-19
- assay-notes: NCI tumour cell line growth inhibition, 48 h
Activity calls are given as the source filed them. No stated cut-off is given here; in the data, active = GI50 up to about 1.1 µM and inactive = higher.

Example compounds with recorded GI50:
>>> df
                                   compound  test_target       value_reported
0  COC(=O)Nc1cc(OCCCOC(C)=O)c2[nH]c(C(=O)OC)cc2c1C[C@H](O)CO       SNB-19  > 100 µM (inactive)
1                   CN1CC[N+](C)=C1c1ccccc1       SNB-19  > 100 µM (inactive)
2  COc1ccc(Nc2nc3c(N)cc(C(F)(F)F)cc3nc2-c2ccccc2)cc1OC       SNB-19   19.8 µM (inactive)
3  CS[C@]12C(=O)C[C@@]3(C)[C@@H](CC[C@]3(O)C(=O)CO)[C@@H]1CCC1=CC(=O)CC[C@@]12C       SNB-19  > 100 µM (inactive)
4  CSc1cc(Cl)c(C)cc1S(=O)(=O)NC(=O)NNc1ccc(F)cc1       SNB-19  > 100 µM (inactive)

Query :: What does the data say about its GI50? Entry: CCCCCCCCCCCCN(CC(O)C(O)C(OC1OC(CO)C(O)C(O)C1O)C(O)CO)C(=O)CCCCCCCCCCC (stereo unspecified)
Result :: 17.9 µM (inactive)

Query :: What does the data say about its GI50? Entry: CCC1C(c2cc(OC)c(OC)c(OC)c2)c2cc3c(cc2OC1N1CCCC1)OCO3 (stereo unspecified)
Result :: 2.74 µM (inactive)

Query :: What does the data say about its GI50? Entry: N#CCCN(CCC#N)c1ccc(C(Sc2ccccc2)C(NC(=O)c2cc([N+](=O)[O-])ccc2Cl)C(=O)Sc2ccccc2)cc1 (stereo unspecified)
Result :: 3.54 µM (inactive)

Query :: What does the data say about its GI50? Entry: CCCCCCCCCCCCCP(=O)(O)O
Result :: 67.1 µM (inactive)

Query :: What does the data say about its GI50? Entry: O=C(O)CCNCC(=O)O
Result :: > 100 µM (inactive)

Query :: What does the data say about its GI50? Entry: CCN(CC)C(=S)SCC(=O)Nc1nc2c(s1)CCCC2
Result :: > 100 µM (inactive)

Query :: What does the data say about its GI50? Entry: CC1(C)OC2OC(/C=C/[N+](=O)[O-])C3OC(C)(C)OC3C2O1 (stereo unspecified)
Result :: 18.5 µM (inactive)

Query :: What does the data say about its GI50? Entry: O=c1c2cc(Br)ccc2nc(-c2ccccc2)n1NCC1(O)OCC(O)C(O)C1O (stereo unspecified)
Result :: > 100 µM (inactive)

Query :: What does the data say about its GI50? Entry: O=C1c2ccccc2C(=O)c2c(NCC3CO3)ccc(NCC3CO3)c21 (stereo unspecified)
Result :: 15.1 µM (inactive)

Query :: What does the data say about its GI50? Entry: CCOP(=O)(OCC)C(F)(F)CC1CCCCC1
Result :: > 10 µM (inactive)

Query :: What does the data say about its GI50? Entry: COc1cc2nc(-c3cccs3)nc(N3CCN(c4ccccc4)CC3)c2cc1OC
Result :: 68.1 µM (inactive)

Query :: What does the data say about its GI50? Entry: NCCCCNCCCNC(=O)CNC(=O)CC(O)C(N)CCCC(NC(=O)C(CN)NC(=O)C(O)CNC(=O)CC(N)c1ccc(O)cc1)C(=O)O (stereo unspecified)
Result :: > 10 µM (inactive)

Query :: What does the data say about its GI50? Entry: S=c1[nH]c2ccc(Br)cc2c(=S)s1
Result :: 31.5 µM (inactive)
